src = patent US11524938B2

Target Desc: human P2X4 (Homo sapiens)
Sequence (Q99571 whole entry): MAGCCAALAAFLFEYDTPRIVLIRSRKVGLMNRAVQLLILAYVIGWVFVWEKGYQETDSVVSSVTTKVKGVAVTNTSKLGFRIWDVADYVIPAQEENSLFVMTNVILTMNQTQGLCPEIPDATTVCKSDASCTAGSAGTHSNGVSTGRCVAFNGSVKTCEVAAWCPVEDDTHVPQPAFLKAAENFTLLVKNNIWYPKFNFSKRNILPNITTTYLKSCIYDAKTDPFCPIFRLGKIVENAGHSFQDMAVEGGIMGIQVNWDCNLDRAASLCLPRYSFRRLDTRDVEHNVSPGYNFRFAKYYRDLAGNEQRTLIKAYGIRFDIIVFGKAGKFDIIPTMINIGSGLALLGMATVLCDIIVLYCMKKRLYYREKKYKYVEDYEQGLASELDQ
Experiment Notes: Human P2X4 HEK Cell FLIPR Assay
Format: cell-based
Settings: HEK293 cells, agonist Bz-ATP at EC80; individual values listed where some fall outside detection range
Endpoint Label: pIC50
Numbers only, as −log10 of the molar value.

# annotated cases, reported pIC50 shown
Requested read-out: pIC50. Entry: NS(=O)(=O)c1cc(NC(=O)Cc2ccccc2Cl)ccc1-n1cc(C(=O)N2CCC(F)(F)C2)cn1
6.91

// query: NS(=O)(=O)c1cc(NC(=O)Cc2ccccc2Cl)ccc1-c1cnn(Cc2ccccc2)c1
7.12

// query: NS(=O)(=O)c1cc(NC(=O)Cc2ccccc2F)ccc1-c1cncc(F)c1
6.99

Record pIC50 per entry; entries follow.
1. NS(=O)(=O)c1cc(NC(=O)Cc2ccccc2OC(F)(F)F)ccc1-c1cncc(C(F)(F)F)c1
2. NS(=O)(=O)c1cc(NC(=O)Cc2c(F)cccc2Cl)ccc1-n1cc(C(F)(F)F)cn1
3. NS(=O)(=O)c1cc(NC(=O)Cc2cc(Cl)ccc2Cl)ccc1-n1cc(F)cn1
4. CC(C)(C)c1cnn(-c2ccc(NC(=O)Cc3ccccc3Cl)cc2S(N)(=O)=O)c1
5. Cc1nn(C)cc1-c1ccc(NC(=O)Cc2ccccc2Cl)cc1S(N)(=O)=O
6. NS(=O)(=O)c1cc(NC(=O)Cc2ccccc2Cl)ccc1-n1cnc2ccccc21

7.04
6.88
7.03
6.13
7.13
6.86

Record pIC50 per entry; entries follow.
1. NS(=O)(=O)c1cc(NC(=O)Cc2ccccc2F)cnc1-n1cc(Cl)cn1
2. CC(C)(O)c1cc(F)cc(-c2ccc(NC(=O)Cc3ccccc3F)cc2S(N)(=O)=O)c1

1: 6.71; 2: 7.07
